# test_summary: chemical genetic growth profiling, strain panel (AID 1159580);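 further: tested at 20 µM; growth read once vehicle control cultures reached saturation at 30 °C; lower values mean less growth of the strain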
# condition_description: S. cerevisiae deletion strains, growth OD, locus YLR133W, strain CKI1
About 2,000 (36%) of roughly 5,500 compounds were called active. Inconclusive results (about 18%) are left out. No stated cut-off is given here; in the data, active means normalized growth mostly below about 0.91 (no sharp cut-off); inconclusive means no clear call, values can overlap the other calls; inactive means mostly above about 0.92. The list shows a part of the results.
Mark one answer only. Choices: active, inactive

*Q* Could you check what this test reported for `CCn1nc(C)cc1-c1nnc(Sc2ncc([N+](=O)[O-])s2)n1C` ?
*A* inactive

*Q* Could you check what this test reported for CCC(C)Cn1c(Sc2ncc([N+](=O)[O-])s2)n[nH]c1=O (stereo not given) ?
*A* inactive

*Q* Could you check what this test reported for `N#CCCCCOc1ccc2c(=O)cc(-c3ccccc3)oc2c1` ?
*A* inactive

*Q* Could you check what this test reported for `O=C1c2ccccc2O[C@@H](c2ccccc2)[C@@H]1NCc1ccccc1` ?
*A* inactive

*Q* Could you check what this test reported for `N#Cc1c(Br)cnn1Cc1cc(C(F)(F)F)cc(C(F)(F)F)c1` ?
*A* inactive

*Q* Could you check what this test reported for `Cc1ccc(C(O)(c2ccccc2)c2ccccc2)c2ccccc12` ?
*A* inactive

*Q* Could you check what this test reported for `O=C(NCc1cccs1)c1csc(Cc2c(Cl)cccc2Cl)n1` ?
*A* inactive

*Q* Could you check what this test reported for `CC(C)c1ccc(-c2cc(=O)c3ccccc3o2)cc1` ?
*A* inactive

*Q* Could you check what this test reported for `CC(C)(C)c1csc(NC(=O)Nc2ccc(Cl)cc2)n1` ?
*A* active

*Q* Could you check what this test reported for `O=C1Nc2ccccc2/C1=N/N=C\c1cc(Br)cc(Br)c1O` ?
*A* active

*Q* Could you check what this test reported for `N#CCC(=O)c1cccc(CSc2ccccc2Cl)c1` ?
*A* active

*Q* Could you check what this test reported for `CN(C(=O)N(C)c1ccc(Cl)cc1C(=O)c1ccccc1Cl)c1ccc(Cl)cc1C(=O)c1ccccc1Cl` ?
*A* active

*Q* Could you check what this test reported for `Fc1ccc(N/N=C\Cc2nnnn2-c2ccccc2)c(F)c1` ?
*A* active

*Q* Could you check what this test reported for `Cc1ccc(C(=O)O/N=C(/N)CSc2ncccc2C(F)(F)F)cc1` ?
*A* inactive

*Q* Could you check what this test reported for `Cc1ccc2c(c1)CCCN2CC(=O)N(c1ccccc1)C1CCCCC1` ?
*A* inactive

*Q* Could you check what this test reported for `CCCc1cnc(N2CCN(CC(=O)N(c3ccccc3)C3CCCCC3)CC2)nc1` ?
*A* inactive

*Q* Could you check what this test reported for `C#Cc1cccc(N=Cc2cc(Cl)cc(Br)c2O)c1` ?
*A* active

*Q* Could you check what this test reported for `O=C(NNC(=O)c1csc(-c2cccs2)n1)c1ccc(C(F)(F)F)cc1` ?
*A* active

*Q* Could you check what this test reported for COc1ccc(C2CC(c3ccccc3)=Nc3ccccc3S2)cc1OC (stereo not given) ?
*A* inactive

*Q* Could you check what this test reported for `O=C1c2ccccc2O[C@@H](c2ccccc2)[C@@H]1NC1CCCCC1` ?
*A* inactive

*Q* Could you check what this test reported for `Cc1nc(-c2ccc(C(F)(F)F)cn2)[nH]c(=O)c1Cl` ?
*A* inactive

*Q* Could you check what this test reported for `CC(C)(C)c1csc(NNC(=O)c2ccc(Cl)cc2)n1` ?
*A* inactive

*Q* Could you check what this test reported for `O=C(CSCc1nc(-c2ccc(Cl)cc2)cs1)N/N=C\c1cccs1` ?
*A* inactive

*Q* Could you check what this test reported for `O=C1Nc2ccccc2/C1=N/N=C\c1ccccc1Cl` ?
*A* inactive

*Q* Could you check what this test reported for `N/C(CSc1ncccc1C(F)(F)F)=N/OC(=O)Nc1cccc(Cl)c1` ?
*A* inactive

Hey, just so you know, these numbers are from PubChem BioAssay AID1159580.
